- TARGET OF ASSAY: HEK 293 GPR73 (prokineticin 1 receptor) expressing cells (Homo sapiens, UniProt Q8TCW9)
- Sequence (Q8TCW9 whole entry): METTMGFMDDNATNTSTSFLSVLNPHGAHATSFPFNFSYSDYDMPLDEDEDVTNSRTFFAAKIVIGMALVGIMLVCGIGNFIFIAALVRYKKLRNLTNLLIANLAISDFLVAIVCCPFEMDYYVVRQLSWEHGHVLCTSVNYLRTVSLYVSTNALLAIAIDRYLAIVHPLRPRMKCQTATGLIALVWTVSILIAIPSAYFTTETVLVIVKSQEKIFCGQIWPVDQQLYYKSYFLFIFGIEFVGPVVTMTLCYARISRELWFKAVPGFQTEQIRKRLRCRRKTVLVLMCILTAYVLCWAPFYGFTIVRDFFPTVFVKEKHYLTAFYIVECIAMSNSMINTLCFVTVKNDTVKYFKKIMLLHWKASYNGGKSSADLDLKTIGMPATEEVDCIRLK
- METHOD NOTES: PK1 functional assay: screening for PK1 antagonists on the FLIPR (calcium fluorescence)
- RECORDED CONDITIONS: HEK 293 GPR73 cells, PK1 ligand at EC50, multiple values = repeat tests, read-out: Ca^2+ Mobilization IC50
pIC50: −log10 of the molar value.
PARAMETER: pIC50

# COMPOUND, RECORDED MEASUREMENT
rows = [
    ("COc1ccc(Cn2c(NCCNC(=N)N)nc(=O)n(Cc3ccc(SC)cc3)c2=O)cc1 [Cpd 45]", 7.74),
]

[1] COCCNC(=N)NCCNc1nc(=O)n(Cc2ccc(Cl)c(Cl)c2)c(=O)n1Cc1ccc(OC)cc1 [Cpd 67]
[2] COc1ccc(Cn2c(NCCNC(=N)Nc3ccc(C(F)(F)F)cc3)nc(=O)n(Cc3ccc(Cl)c(Cl)c3)c2=O)cc1 [Cpd 74]
[3] N=C(N)NCCNc1nc(=O)n(Cc2ccccc2)c(=O)n1Cc1ccc(C(N)=O)cc1 [Cpd 22]
[4] COc1ccc(Cn2c(NCCNC(=N)N)nc(=O)n(CC3CCCC3)c2=O)cc1 [Cpd 124]
List items by pIC50 in falling order. State the ranking by listing the labels in the requested order. 1, 2, 3, 4
(1: 7.74, 2: 6.86, 3: 6.02, 4: 5.81)
